Assay: Biodistribution in Daudi xenograft bearing mice
Assay type: in vivo, mouse
Settings: female, CB-17 SCID, mouse, lung, iv, total radioactivity, 1h p.i., tracer only, i.v.; γ-counter; means ± SD, n=4-5 (68Ga: n=4); read-out: Biodistribution lung
Where a SMILES comes first, the peptide text is derived from it. Side-chain parts run from the residue outwards. [ ]: non-standard residue; d: D form. The star is where a group is joined. DOTA = O=C(O)CN1CCN(CC(=O)O)CCN(CC(=O)*)CCN(CC(=O)O)CC1; 2Nal = N[C@@H](Cc1ccc2ccccc2c1)C(=O)O; dNMeOrn = CN[C@H](CCCN)C(=O)O; 4Abz = Nc1ccc(C(=O)O)cc1

# COMPOUND, tissue uptake at 1 h
data = [
    ("C[C@@H](NC(=O)[C@@H](CCCNC(=N)N)NC(=O)CN1CCN(CC(=O)O)CCN(CC(=O)O)CCN(CC(=O)O)CC1)C(=O)Nc1ccc(C(=O)NCCC[C@@H]2C(=O)N[C@@H](CCCNC(=N)N)C(=O)N[C@@H](Cc3ccc4ccccc4c3)C(=O)NCC(=O)N[C@H](Cc3ccc(O)cc3)C(=O)N2C)cc1 [[^68Ga]DOTA-r-a-ABA-CPCR4, metal not drawn] (cyclo([2Nal]G[dY][dNMeOrn]([4Abz-dA-dR-DOTA])R))", "3.15 %ID/g"),
]

---

Experiment: Biodistribution in Daudi xenograft bearing mice
Format: in vivo, mouse
Details: female, CB-17 SCID, mouse, heart, iv, total radioactivity, 48h p.i., i.v.; means ± SD, n=4-5; read-out: Biodistribution heart
Description: The biodistribution of selected compounds was investigated in Daudi (human B-cell lymphoma) xenograft bearing female CB-17 SCID mice (6-8 weeks, Charles River, Sulzfeld, Germany), [29]. […] Animals (n=4-5 per group) were injected intravenously with 5-10 MBq (0.08-0.11 nmol peptide per mouse) of the respective ^68Ga- and^ 177Lu-labeled CXCR4 ligands in PBS (100 µL) into the tail vein under isoflurane anesthesia. CXCR4-specificity of binding was determined by coinjection of 50 µg AMD3100 per mouse. […]
Where a SMILES comes first, the peptide text is derived from it. Side-chain parts run from the residue outwards. [ ]: non-standard residue; d: D form. The star is where a group is joined. DOTA = O=C(O)CN1CCN(CC(=O)O)CCN(CC(=O)*)CCN(CC(=O)O)CC1; dTyr(3-I) = N[C@H](Cc1ccc(O)c(I)c1)C(=O)O; 2Nal = N[C@@H](Cc1ccc2ccccc2c1)C(=O)O; dNMeOrn = CN[C@H](CCCN)C(=O)O; 4Abz = Nc1ccc(C(=O)O)cc1

# COMPOUND, tissue uptake at 48 h / %ID/g
measured = [
    ("C[C@@H](NC(=O)[C@@H](CCCNC(=N)N)NC(=O)CN1CCN(CC(=O)O)CCN(CC(=O)O)CCN(CC(=O)O)CC1)C(=O)Nc1ccc(C(=O)NCCC[C@@H]2C(=O)N[C@@H](CCCNC(=N)N)C(=O)N[C@@H](Cc3ccc4ccccc4c3)C(=O)NCC(=O)N[C@H](Cc3ccc(O)c(I)c3)C(=O)N2C)cc1 [[^177Lu]DOTA-r-a-ABA-iodoCPCR4, metal not drawn] (cyclo([2Nal]G[dTyr(3-I)][dNMeOrn]([4Abz-dA-dR-DOTA])R))", 0.19),
    ("C[C@@H](NC(=O)[C@@H](CCCNC(=N)N)NC(=O)CN1CCN(CC(=O)O)CCN(CC(=O)O)CCN(CC(=O)O)CC1)C(=O)Nc1ccc(C(=O)NCCC[C@@H]2C(=O)N[C@@H](CCCNC(=N)N)C(=O)N[C@@H](Cc3ccc4ccccc4c3)C(=O)NCC(=O)N[C@H](Cc3ccc(O)cc3)C(=O)N2C)cc1 [[^177Lu]DOTA-r-a-ABA-CPCR4, metal not drawn] (cyclo([2Nal]G[dY][dNMeOrn]([4Abz-dA-dR-DOTA])R))", 0.08),
]
